ASSAY INFO: basal RPMI8226 viability, no added stimulus, profiling panel, cell-based, calcein-AM fluorescence, 48 h, PK04 Diversity Set (AID 1166);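 note: cells grown under basal conditions without added stimulus; test concentration not given here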
MEASUREMENT PARAMETERS: RPMI8226 myeloma viability, higher = more signal
MEASUREMENT TYPE: z-score

chemical_string=CCCC=C(CCC)[C@@H](NS(=O)(=O)c1cccc(C(F)(F)F)c1)c1ccc(C(=O)OC)cc1 measurement_type=z-score test_value=-0.341
chemical_string=C[C@@H]1NC(=O)CC=C[C@@H](C)[C@@H]2C=C[C@H](O)[C@@H](COC(=O)[C@H](C)NC(=O)CC=C[C@@H](C)[C@@H]3C=C[C@H](O)[C@@H](COC1=O)O3)O2 measurement_type=z-score test_value=-1.38
chemical_string=C=CCC1=C[C@H]2[C@H]([C@@H]3C=C[C@]2(CC=C)C(=O)[C@]32CO2)[C@@]2(CO2)C1=O measurement_type=z-score test_value=-2.93
chemical_string=CC(C)CNC(=O)[C@@]1(C)c2ccccc2C(=O)N(Cc2ccc(OC(F)(F)F)cc2)[C@H]1c1ccc(CO)cc1 measurement_type=z-score test_value=-0.358
